- System: MCF7
- Assay comment: NCI tumour cell line growth inhibition, 48 h
Active and inactive are the calls of the source. Cut-off read from the data, not from the text of the source: active = GI50 up to about 1.1 µM and inactive = higher.
Entry note: the call must match one of YES (active), NO (inactive)

These recorded examples may help you get a feel for the data.
| Compound | Cat |
| --- | --- |
| CCC(C)[C@@H](NCc1ccccc1)[C@H](OCc1ccccc1)[C@@H]1COC(C)(C)O1 (stereo partly specified) | NO |
| O=C(O)C1OC(n2cc(F)c(=O)[nH]c2=O)CC1O (stereo unspecified) | YES |
| COc1ccc2cc(NC(=O)Nn3cnnc3)ccc2c1 | NO |
| CC(C)(NC1=NCCO1)c1ccccc1 | NO |

[in] Please state the recorded outcome for this compound: Cc1nc2ccccc2c(=O)n1NC(=O)c1ccc(N)cc1
[out] NO

[in] Please state the recorded outcome for this compound: Cc1ccc(C2=Nn3c(nc4sc5c(c4c3=O)CCCC5)SC2)cc1
[out] NO

[in] Please state the recorded outcome for this compound: COc1cccc2[nH]c(-c3ccccn3)nc12
[out] NO

[in] Please state the recorded outcome for this compound: CN(C(=O)Cc1ccc(Cl)c(Cl)c1)[C@H]1CCCC[C@@H]1[N+]1(C)CCCC1
[out] NO

[in] Please state the recorded outcome for this compound: COc1c(/C=C/C(C)(C)O)cc(C2CC(=O)c3c(O)cc(O)cc3O2)cc1CC=C(C)C (stereo unspecified)
[out] NO

[in] Please state the recorded outcome for this compound: CCN(CC)CCCn1c(=O)c2cccnc2n2c3c(=O)n(C)c(=O)n(C)c3nc12
[out] NO

[in] Please state the recorded outcome for this compound: CC1(C(=O)O)C[C@](C)(C(=O)OCc2ccccc2)C[C@](C)(C(=O)OCc2ccccc2)C1 (stereo partly specified)
[out] NO

====

- Tested on: EKVX
- Assay comment: NCI tumour cell line growth inhibition, 48 h
Active and inactive are the calls of the source. Rule as the data show it: active = GI50 up to about 1.1 µM and inactive = higher.
Entry note: the call must match one of active, inactive

| Compound | Cat |
| --- | --- |
| CC1OC(CO)(n2cnc3c(N)ncnc32)C(O)C1O (stereo unspecified) | inactive |
| N/C(=N\c1ccc(Cl)cc1)NS(=O)(=O)c1cc(Cl)c(Oc2ccc([N+](=O)[O-])cc2Cl)c(Cl)c1 | inactive |
| CNC(=O)N(C)COC | inactive |
| COc1ccc(N2C(=O)c3cccnc3S2(=O)=O)cc1 | inactive |
| O=C1C(Cl)N(c2ccccc2Cl)C1c1c[nH]c2ccccc12 (stereo unspecified) | inactive |

[in] Please state the recorded outcome for this compound: O=C1C2=C(c3ccccc31)C(c1ccccc1Cl)N1C(=O)CSC1=N2 (stereo unspecified)
[out] inactive

[in] Please state the recorded outcome for this compound: COC(=O)CC(=O)Nc1sccc1S(=O)(=O)c1ccccc1
[out] inactive

[in] Please state the recorded outcome for this compound: O=C(OCC(Cl)(Cl)Cl)N1CC[C@@H](C2CCCCC2)C1
[out] inactive

[in] Please state the recorded outcome for this compound: c1ccc(/N=C(/Nc2ccccc2)N2CCCC2)cc1
[out] inactive

[in] Please state the recorded outcome for this compound: Cn1c(C2CC(C)(C)c3c2c2ccccc2n3C)cc2ccccc21 (stereo unspecified)
[out] inactive

====

# GI50 per entry
- System: BT-549
- Assay comment: NCI tumour cell line growth inhibition, 48 h
Activity calls are given as the source filed them. Cut-off read from the data, not from the text of the source: active = GI50 up to about 1.1 µM and inactive = higher.

Please review the following examples before continuing.
| Molecule | Measurement label | Reported |
| --- | --- | --- |
| C[C@H]1S[C@H](c2c(Cl)cccc2Cl)N2Cc3ccccc3N=C12 | GI50 | 28.2 µM (inactive) |
| C/C=N\n1c(C)n[nH]c1=O | GI50 | > 100 µM (inactive) |
| COC(=O)CC(=O)Nc1sccc1S(=O)(=O)c1ccccc1 | GI50 | 27.5 µM (inactive) |
| N=C(N)N/N=C/c1nc2sccn2c1[N+](=O)[O-] | GI50 | 39.9 µM (inactive) |
| COc1cccc(C23CCCC(C2)N(C)CC3OC(=O)c2ccccc2)c1OC (stereo not given) | GI50 | 14.5 µM (inactive) |

// molecule O=c1c2c3c(sc2nc2n1N=C(c1ccc(Cl)cc1)CS2)CCCC3 , assay BT-549, GI50 value: > 100 µM (inactive)

// molecule COc1cc(/C=C/C(C)=O)ccc1OP(=O)(O)O , assay BT-549, GI50 value: > 100 µM (inactive)

// molecule COc1nc(N)c(NC2OC(CO)C(O)C2O)c(=O)[nH]1 (stereo not given) , assay BT-549, GI50 value: > 100 µM (inactive)

// molecule COC(=O)[C@H](C)[C@@H]1CC[C@](C)(CCC2=C(C)CCCC2(C)C)OO1 , assay BT-549, GI50 value: > 25 µM (inactive)

// molecule Cc1ccc(SC2=C(N(C)C)C(=O)c3ccccc3C2=O)cc1 , assay BT-549, GI50 value: 6.43 µM (inactive)

====

- Tested on: OVCAR-8
- Assay comment: NCI tumour cell line growth inhibition, 48 h
Calls of active or inactive are those of the source. No stated cut-off is given here; in the data, active = GI50 up to about 1.1 µM and inactive = higher.
# GI50 per entry

Please review the following examples before continuing.
| Compound | GI50 |
| --- | --- |
| CN1CC2=C(N=C(S)NC2c2ccc(Cl)cc2)/C(=C/c2ccc(Cl)cc2)C1 (stereo unspecified) | 17.5 µM (inactive) |
| Cc1cc(N(CCC#N)CCC#N)ccc1/C=C(\N=[N+]=[N-])C(=O)NC(=O)COc1ccccc1 | > 81.1 µM (inactive) |
| COc1cc2c(cc1OC)CN1CCCc3cc(OC)c(OC)cc3C1C2 (stereo unspecified) | 57.7 µM (inactive) |
| CN(Cc1cnc2nc(N)nc(N)c2n1)c1ccc(C(=O)NC23CC4CC(CC(C4)C2)C3)cc1 | 7.35 µM (inactive) |
| O=C1NC2(CCCCC2)C2CCCCC=C12 (stereo unspecified) | > 100 µM (inactive) |

// compound COC(C(=O)NN)c1ccccc1 (stereo unspecified) , assay OVCAR-8, GI50 value: > 100 µM (inactive)

====

- Tested on: EKVX
- Assay comment: NCI tumour cell line growth inhibition, 48 h
Active and inactive are the calls of the source. No stated cut-off is given here; in the data, active = GI50 up to about 1.1 µM and inactive = higher.
Measurement label: GI50

| Compound | GI50 |
| --- | --- |
| O=C1Nc2ccc(Br)cc2/C1=N/N1C(=O)C(=O)N(C2CCCCC2)C1=S | 4.98 µM (inactive) |
| NC(CSC1(c2ccc(Cl)cc2)c2ccccc2-c2ccccc21)C(=O)O (stereo not given) | 67.1 µM (inactive) |
| S=C(N/N=C\C=N/NC(=S)N1CCCCCC1)N1CCCCCC1 | > 57.3 µM (inactive) |
| CC(C)(C)OC(=O)N(O)CCCn1cnc2c(NC3CC3)ncnc21 | > 100 µM (inactive) |

Now for the compound whose GI50 we want.
// compound CC1=NN(C(=O)CSc2nnc(SCC(=O)N3N=C(C)CC3(O)c3ccccc3)s2)C(O)(c2ccccc2)C1 (stereo not given) , assay EKVX, GI50 value: 27 µM (inactive)

====

- Test system: SK-MEL-2
- Assay comment: NCI tumour cell line growth inhibition, 48 h
Activity calls are given as the source filed them. Cut-off read from the data, not from the text of the source: active = GI50 up to about 1.1 µM and inactive = higher.
Entry note: the call must match one of active, inactive

| Molecule | Cat |
| --- | --- |
| Cc1cc(NC(=O)NC(=O)c2ccccc2N)ccc1Oc1ncc(Br)cn1 | active |
| CN1CC2=C(N=C(S)NC2c2ccc(Cl)cc2)/C(=C/c2ccc(Cl)cc2)C1 (stereo unspecified) | inactive |
| C=C(C)C12CC3CC(/C(=N/O)C(C1)/C3=N\O)[C@@]2(C)O (stereo partly specified) | inactive |
| CCCCCCNCCCNc1c2cc(OC)ccc2nc2cccc([N+](=O)[O-])c12 | active |
| COC(OC)(c1ccccc1)C(I)I | inactive |
| Cc1nnc2n(c1=O)CCN2C | inactive |
| Cc1cccc(Cl)c1NC(=O)/C=C/c1ccccc1 | inactive |
| COC1/C=C\C=C(/C)C(=O)NC2=CC(=O)C(N)=C(CC(C)CC(OC)C(O)C(C)C=C(C)C1OC(N)=O)C2=O (stereo unspecified) | active |

[in] Please state the recorded outcome for this molecule: O=C1OC(c2ccccc2)(c2ccccc2)CC1CN1CCOCC1 (stereo unspecified)
[out] inactive

[in] Please state the recorded outcome for this molecule: c1ccc(CN2CCC(CNc3ncnc4ccccc34)C2)cc1 (stereo unspecified)
[out] inactive

[in] Please state the recorded outcome for this molecule: c1ccc(C2SCc3nc4ccccc4n32)cc1 (stereo unspecified)
[out] inactive

====

# GI50 per entry
- System: NCI-H23
- Assay comment: NCI tumour cell line growth inhibition, 48 h
Active and inactive are the calls of the source. Rule as the data show it: active = GI50 up to about 1.1 µM and inactive = higher.

Please review the following examples before continuing.
| Compound | Measurement label | Reported |
| --- | --- | --- |
| Cc1c(C)c2c(c(N)c1C#N)C(=O)N(N)C2=O | GI50 | > 100 µM (inactive) |
| c1ccc(/N=C(\N2CCCC2)N(CCN2CCCC2)c2ccccc2)cc1 | GI50 | 11.1 µM (inactive) |
| Cc1ccc(SC2=C(N(C)C)C(=O)c3ccccc3C2=O)cc1 | GI50 | 1.82 µM (inactive) |
| NC1=NC(NCC2(CO)CCC2)=CC(OCC2(CO)CCC2)N1 (stereo unspecified) | GI50 | 26.2 µM (inactive) |
| COc1ccc2cc(NC(=O)Nn3cnnc3)ccc2c1 | GI50 | > 100 µM (inactive) |

Now for the compound whose GI50 we want.
N/C(=N\c1ccc(Cl)cc1)NS(=O)(=O)c1cc(Cl)c(Oc2ccc([N+](=O)[O-])cc2Cl)c(Cl)c1 has a reported GI50 of 16.8 µM (inactive)
